Values compiled from patent US10562947B2.

Molecular target: DAPK2(h) (Homo sapiens, UniProt Q9UIK4)
Sequence (Q9UIK4 whole entry): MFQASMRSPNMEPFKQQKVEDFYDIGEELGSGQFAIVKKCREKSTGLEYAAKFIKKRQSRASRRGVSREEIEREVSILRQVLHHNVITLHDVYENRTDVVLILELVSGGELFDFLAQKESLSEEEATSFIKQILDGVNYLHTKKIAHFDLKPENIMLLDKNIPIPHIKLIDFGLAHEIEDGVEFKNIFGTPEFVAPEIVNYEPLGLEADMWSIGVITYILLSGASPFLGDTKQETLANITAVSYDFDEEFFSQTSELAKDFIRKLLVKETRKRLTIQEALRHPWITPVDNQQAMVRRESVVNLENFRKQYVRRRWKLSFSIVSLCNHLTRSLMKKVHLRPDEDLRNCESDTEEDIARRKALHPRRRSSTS
Assay: Kinase Profiling Assay
Format: biochemical
Details: 100 μM peptide
experimental-readout: DAPK2(h) % activity (%)

In [3]: df
Out[3]:
                            sequence_record  experimental_readout  result_value
0        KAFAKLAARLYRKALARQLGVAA [MMI-0400]   DAPK2(h) % activity            16
1  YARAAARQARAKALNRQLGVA (Mammalian) [MMI-0200]   DAPK2(h) % activity            92
2          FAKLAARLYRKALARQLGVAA [MMI-0300]   DAPK2(h) % activity            32
3  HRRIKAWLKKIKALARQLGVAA (Mammalian) [MMI-0500]   DAPK2(h) % activity             3

* * *

Target: Lyn(h) (Homo sapiens)
Sequence (P07948 whole entry): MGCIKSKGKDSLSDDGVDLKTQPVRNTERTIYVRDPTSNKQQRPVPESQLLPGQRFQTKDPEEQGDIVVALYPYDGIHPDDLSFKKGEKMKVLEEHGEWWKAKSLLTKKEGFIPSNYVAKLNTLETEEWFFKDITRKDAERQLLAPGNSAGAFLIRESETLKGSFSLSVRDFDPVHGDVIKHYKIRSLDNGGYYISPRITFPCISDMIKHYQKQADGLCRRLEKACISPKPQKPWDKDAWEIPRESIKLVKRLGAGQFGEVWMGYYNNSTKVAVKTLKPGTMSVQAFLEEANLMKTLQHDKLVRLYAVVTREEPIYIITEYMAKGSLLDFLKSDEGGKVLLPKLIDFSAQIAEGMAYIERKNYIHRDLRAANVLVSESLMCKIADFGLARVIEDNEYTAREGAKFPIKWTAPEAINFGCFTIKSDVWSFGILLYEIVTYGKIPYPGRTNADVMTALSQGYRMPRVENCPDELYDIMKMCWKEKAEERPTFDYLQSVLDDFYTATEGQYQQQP
Experiment: Kinase Profiling Assay
Assay type: biochemical
Conditions: 100 μM peptide
experimental-readout: Lyn(h) % activity (%)

In [3]: df
Out[3]:
                            sequence_record        measured_target  quantity_unit  result_value
0  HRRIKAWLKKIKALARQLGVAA (Mammalian) [MMI-0500]  Lyn(h) (Homo sapiens)              %            31
1          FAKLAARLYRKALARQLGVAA [MMI-0300]  Lyn(h) (Homo sapiens)              %            69
2  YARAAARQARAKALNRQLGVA (Mammalian) [MMI-0200]  Lyn(h) (Homo sapiens)              %            98
3        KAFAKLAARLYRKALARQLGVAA [MMI-0400]  Lyn(h) (Homo sapiens)              %             3

* * *

Below, each entry is listed with its recorded PDK1(h) % activity.
Molecular target: PDK1(h) (Homo sapiens)
Sequence (O15530 1-556): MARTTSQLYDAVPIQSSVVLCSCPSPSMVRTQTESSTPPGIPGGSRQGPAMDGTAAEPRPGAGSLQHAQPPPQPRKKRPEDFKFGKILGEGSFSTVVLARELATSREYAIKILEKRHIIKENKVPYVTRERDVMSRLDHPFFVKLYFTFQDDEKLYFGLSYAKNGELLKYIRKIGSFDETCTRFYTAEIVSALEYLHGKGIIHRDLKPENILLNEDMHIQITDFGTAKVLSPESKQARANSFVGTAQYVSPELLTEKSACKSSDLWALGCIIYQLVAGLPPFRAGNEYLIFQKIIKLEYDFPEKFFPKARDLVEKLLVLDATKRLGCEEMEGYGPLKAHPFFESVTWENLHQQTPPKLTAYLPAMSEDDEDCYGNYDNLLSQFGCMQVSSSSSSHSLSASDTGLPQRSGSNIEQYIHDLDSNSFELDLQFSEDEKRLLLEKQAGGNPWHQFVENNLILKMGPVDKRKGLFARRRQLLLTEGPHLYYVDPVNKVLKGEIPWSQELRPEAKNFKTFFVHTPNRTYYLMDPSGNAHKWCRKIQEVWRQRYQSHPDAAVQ
Assay: Kinase Profiling Assay
Assay type: biochemical
Conditions: 100 μM peptide
experimental-readout: PDK1(h) % activity

                            sequence_record  experimental_readout  result_value
0        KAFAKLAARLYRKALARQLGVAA [MMI-0400]    PDK1(h) % activity          159%
1  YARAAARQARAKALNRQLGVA (Mammalian) [MMI-0200]    PDK1(h) % activity          143%
2  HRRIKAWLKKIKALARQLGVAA (Mammalian) [MMI-0500]    PDK1(h) % activity          178%
3          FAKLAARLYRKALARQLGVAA [MMI-0300]    PDK1(h) % activity          135%
